Record form. Attribute: Classification. Fill in for each entry.
Target: T1, GST-Outer Membrane PDZ domain 1 (Homo sapiens (Human)), P57105
T1 chain: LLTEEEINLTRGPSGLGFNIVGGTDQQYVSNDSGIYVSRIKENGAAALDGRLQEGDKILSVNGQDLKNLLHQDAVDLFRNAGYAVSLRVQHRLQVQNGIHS
Assay: G' assay; also: key of the grades not given here
Give just the numeric value; A450 class need not be written.

Classification for AGAVRTPLSQVNKVWDQSSV (modifications not checked) [CITRON protein] is 4

Classification for LHNQASVPLEPRPLRRESEI (modifications not checked) [Kir2.1 (inwardly rect. K+ channel)] is 4

Classification for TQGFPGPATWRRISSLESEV (modifications not checked) [NMDA Glutamate Receptor 2C (cysteine-free)] is 5

Classification for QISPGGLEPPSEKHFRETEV (modifications not checked) [TAX] is 5

Classification for ESSGTQSPKRHSGSYLVTSV (modifications not checked) [APC-adenomatous polyposis coli protein] is 2

Classification for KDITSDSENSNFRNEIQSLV (modifications not checked) [CD95] is 1

Classification for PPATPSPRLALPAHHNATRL (modifications not checked) [Na+/Pi cotransporter 2] is 1

Classification for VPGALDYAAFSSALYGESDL (modifications not checked) [a-actinin 2] is 1
